Molecular target: T1, mouse SIRPα on cells (mouse, UniProt P97797 32-513)
T1 construct: whole, on cells
T1 sequence (looked up): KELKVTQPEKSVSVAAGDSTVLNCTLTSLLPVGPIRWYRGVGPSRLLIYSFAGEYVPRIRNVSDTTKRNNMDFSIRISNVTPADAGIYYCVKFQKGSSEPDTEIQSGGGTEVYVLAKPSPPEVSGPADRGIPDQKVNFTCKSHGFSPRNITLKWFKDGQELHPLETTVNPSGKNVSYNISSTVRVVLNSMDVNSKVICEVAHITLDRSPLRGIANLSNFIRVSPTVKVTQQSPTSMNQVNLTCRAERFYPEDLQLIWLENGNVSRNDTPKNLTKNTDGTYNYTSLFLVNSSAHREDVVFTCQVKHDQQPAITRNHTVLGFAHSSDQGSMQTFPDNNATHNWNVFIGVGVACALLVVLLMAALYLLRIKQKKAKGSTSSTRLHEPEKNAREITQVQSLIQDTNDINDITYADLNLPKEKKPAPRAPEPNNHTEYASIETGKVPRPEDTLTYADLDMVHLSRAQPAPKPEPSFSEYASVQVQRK
Test: flow cytometry;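 further: antibodies tested at 1 µg/ml for 30 min on ice against receptor-expressing cells, detected with a PE-labelled secondary antibody, read as mean fluorescence intensity relative to background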
Recorded endpoint: FOB

These recorded examples may help you get a feel for the data.
{"Binder": "SB-43 (antibody, V domains shown, IgG) VH: QVQLQESGPGLVKPSETLSLTCAVSGYSISSGYYWAWIRQPPGKGLEWIGSIYHSGSTYYNPSLKSRVTISVDTSKNQFSLKLSSVTAADTAVYYCARDAPGYPMLGMDVWGQGTTVSVSS VL: EIVLTQSPATLSLSPGERATLSCRASQSVSSYLAWYQQKPGQAPRLLIYDASKRATGIPARFSGSGSGTDFTLTISSLEPEDFAVYYCQQRFDFPITFGGGTKVEIK", "Recorded endpoint": "FOB", "Result": "1.6 fold over background"}
{"Binder": "SB-44 (antibody, V domains shown, IgG) VH: EVQLVESGGGLVQPGGSLRLSCAASGFTVSSNYMSWVRQAPGKGLEWVSVIYSGGDTYYADSVKGRFTISRDNSKNTLYLQMNSLRAEDTAVYYCAREGSSFWSGSAVSYYGMDVWGQGTTVTVSS VL: DIQMTQSPSTLSASVGDRVTITCRASQSIGSWLAWYQQKPGKAPKLLIYKASSLESGVPSRFSGSGSGTEFTLTISSLQPDDFATYYCQEYGSYRTFGGGTKVEIK", "Recorded endpoint": "FOB", "Result": "1.2 fold over background"}
{"Binder": "SB-47 (antibody, V domains shown, IgG) VH: QLQLQESGPGLVKPSETLSLTCTVSGGSISSSSYAWGWIRQPPGKGLEWIGSIYYSGSTYYNPSLKSRVTISVDTSKNQFSLKLSSVTAADTAVYYCARDLGHYDYWSGSRDYYYGMDVWGQGTTVTVSS VL: DIQMTQSPSSLSASVGDRVTITCQASQDISNYLNWYQQKPGKAPKLLIYDASNLETGVPSRFSGSGSGTDFTFTISSLQPEDIATYYCQQADYFPITFGGGTKVEIK", "Recorded endpoint": "FOB", "Result": "1.7 fold over background"}
{"Binder": "SB-37 (antibody, V domains shown, IgG) VH: QVQLVQSGAEVKKPGSSVKVSCKASGGTFSNYAISWVRQAPGQGLEWMGGIIPIFGTANYAQKFQGRVTITADESTSTAYMELSSLRSEDTAVYYCARSRWGASGYYYYMDVWGQGTMVTVSS VL: EIVLTQSPATLSLSPGERATLSCRASQSVSSYLAWYQQKPGQAPRLLIYDASNRATGIPARFSGSGSGTDFTLTISSLEPEDFAVYYCQQRHTYPLTFGGGTKVEIK", "Recorded endpoint": "FOB", "Result": "1 fold over background"}

We next turn to a different binder, shown below.
Note FOB for the binder shown: SB-22 (antibody, V domains shown, IgG) VH: EVQLVESGGGLVQPGGSLRLSCAASGFTVSSNYMSWVRQAPGKGLEWVSVIYSDGSTYYADSVKGRFTISRDNSKNTLYLQMNSLRAEDTAVYYCARPTRYGYDRLGMDVWGQGTTVTVSS VL: DIQMTQSPSSVSASVGDRVTITCRASQGISSWLAWYQQKPGKAPKLLIYAASNLQSGVPSRFSGSGSGTDFTLTISSLQPEDFATYYCQQGNSYPITFGGGTKVEIK
0.9 fold over background
